target.under.test: 5-hydroxytryptamine receptor 2C (Rattus norvegicus)
Sequence (P08909 whole entry): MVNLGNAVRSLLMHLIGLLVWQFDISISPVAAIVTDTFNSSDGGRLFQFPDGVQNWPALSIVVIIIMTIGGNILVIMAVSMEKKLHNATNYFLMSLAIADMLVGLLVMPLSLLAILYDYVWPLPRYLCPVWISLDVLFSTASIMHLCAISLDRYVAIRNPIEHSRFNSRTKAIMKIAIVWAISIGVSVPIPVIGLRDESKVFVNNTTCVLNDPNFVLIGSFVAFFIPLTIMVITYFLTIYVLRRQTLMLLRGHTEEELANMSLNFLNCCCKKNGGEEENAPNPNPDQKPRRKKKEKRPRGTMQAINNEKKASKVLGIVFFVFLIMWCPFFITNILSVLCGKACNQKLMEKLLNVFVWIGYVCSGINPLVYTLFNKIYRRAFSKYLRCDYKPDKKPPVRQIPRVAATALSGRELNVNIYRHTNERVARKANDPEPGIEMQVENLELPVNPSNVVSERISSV
experiment: Affinity against 5-hydroxytryptamine 2C receptor in J1 cells transfected with the rat 5-HT2C gene labeled with [3H]mesulergine.
pKi: −log10 of the molar value.
Threshold rule: pKi greater than or equal to 6 is met; below that, not met.

Please review the entries below; each comes with its answer.
| smiles.entry | assigned.category |
| --- | --- |
| COc1ccc2[nH]cc(CCN3CCCCC3)c2c1 | not met |
| COc1ccc2[nH]cc(CCNCc3ccccc3)c2c1 | met |
| COc1ccc2[nH]cc(CCNCc3ccc(Br)cc3)c2c1 | met |

Then this compound:
Exam item: Given the entry COc1ccc2[nH]cc(CCNCc3ccc(N)cc3)c2c1 , answer whether its pKi meets or surpasses 6.
Marked response: not met

----------
experiment: The compound evaluated for its receptor selectivity 5-HT2C receptors versus [125I]- DOI- labeled receptors
observable: Ratio

| smiles.entry | test.result |
| --- | --- |
| COc1ccc2[nH]cc(CCNCc3ccc(N)cc3)c2c1 | 64 |
| COc1cc(CCNCc2ccc([N+](=O)[O-])cc2)c(OC)cc1Br | 21 |
| COc1cc(CCNCCCc2ccccc2)c(OC)cc1Br | 13 |

Required: Ratio, one value per compound below.
1. COc1cc(CCNCc2ccc(I)cc2)c(OC)cc1Br
2. COc1cc(CCNCc2ccc(C)cc2)c(OC)cc1Br
3. COc1cc(CCNCc2ccc(N)cc2)c(OC)cc1Br

Marked response:
1: 410; 2: 16; 3: 64

----------
Please respond with reported Ki for every item in the list.
target.under.test: 5-hydroxytryptamine receptor 2A (Homo sapiens)
experiment: Affinity against 5-hydroxytryptamine 2A receptor (K) labeled with [3H]ketanserin.

Here are 5 compounds together with their reported answers.
| smiles.entry | observable | test.result |
| --- | --- | --- |
| COc1cc(CCNCc2ccc([N+](=O)[O-])cc2)c(OC)cc1Br | Ki | 290 nM |
| COc1cc(CCN(C)C)c(OC)cc1Br | Ki | 420 nM |
| COc1ccc2[nH]cc(CCNCc3ccc(N)cc3)c2c1 | Ki | 475 nM |
| COc1cc(CCNCc2ccc(Cl)cc2)c(OC)cc1Br | Ki | 110 nM |
| COc1cc(CCN)c(OC)cc1Br | Ki | 34 nM |

Give Ki for each listed item.
1. COc1cc(CCNCc2ccc(N)cc2)c(OC)cc1Br
2. COc1ccc2[nH]cc(CCNCCCc3ccccc3)c2c1

Marked response:
["50 nM", "50 nM"]

----------
target.under.test: 5-hydroxytryptamine receptor 2A (Homo sapiens, UniProt P28223)
Sequence (P28223 whole entry): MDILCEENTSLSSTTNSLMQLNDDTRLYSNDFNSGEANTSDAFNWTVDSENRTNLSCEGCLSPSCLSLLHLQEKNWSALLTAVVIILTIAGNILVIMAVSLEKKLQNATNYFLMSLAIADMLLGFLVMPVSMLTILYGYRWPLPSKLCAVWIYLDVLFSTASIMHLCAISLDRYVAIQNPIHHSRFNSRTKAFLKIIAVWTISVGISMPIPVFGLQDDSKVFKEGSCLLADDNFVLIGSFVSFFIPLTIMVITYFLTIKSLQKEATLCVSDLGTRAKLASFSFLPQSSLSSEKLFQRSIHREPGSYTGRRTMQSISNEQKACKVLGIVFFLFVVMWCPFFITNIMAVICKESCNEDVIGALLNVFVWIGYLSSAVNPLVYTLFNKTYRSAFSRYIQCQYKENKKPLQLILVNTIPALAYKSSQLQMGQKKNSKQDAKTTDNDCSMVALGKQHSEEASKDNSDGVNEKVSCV
experiment: Affinity against 5-hydroxytryptamine 2A receptor (D) labeled with [125I]DOI.
observable: pKi
Give bare numbers, as −log10 of the molar value.

Look at each compound and report its pKi.
1. CCNCCc1cc(OC)c(Br)cc1OC
2. COc1cc(CCNCc2ccc(F)cc2)c(OC)cc1Br
3. COc1ccc2[nH]cc(CCNCc3ccc(C)cc3)c2c1
4. COc1ccc2[nH]cc(CCNCc3ccc(Br)cc3)c2c1
5. COc1cc(CCNCc2ccc(C)cc2)c(OC)cc1Br
6. CCNCCc1c[nH]c2ccc(OC)cc12
7. COc1cc(CCNCc2ccc(Cl)cc2)c(OC)cc1Br

Marked response:
7.40
8.47
7.52
10.00
7.85
8.14
7.82

The following compounds each have a reported value; give each one's pKi.
1. COc1cc(CCNCc2ccc(Br)cc2)c(OC)cc1Br
2. COc1ccc(CNCCc2cc(OC)c(Br)cc2OC)cc1
3. CNCCc1cc(OC)c(Br)cc1OC
4. COc1cc(CCNCCCc2ccccc2)c(OC)cc1Br

Marked response:
9.40
7.89
8.54
7.64
